assay: Compound A2 concentration in the CSF of rats; format: in vivo; details: rat, CSF, po, 10 mg/kg, PO, 8.0 h, mean, read-out: CSF Concentration, Mean
readout.kind: concentration at 8 h (ng/mL)
Quick reminder: number only, in ng/mL, skip the unit.

Exam item: For the compound Cc1ccc(C(F)(F)F)cc1NS(=O)(=O)c1cccc(C(=O)O)c1 , what concentration at 8 h is on record?
Marked response: 11

----------
assay: Compound A2 concentration in the CSF of rats; assay type: in vivo; conditions: rat, CSF, po, 10 mg/kg, PO, 24 h, mean, read-out: CSF Concentration, Mean
readout.kind: concentration at 24 h (ng/mL)
// units = ng/mL; emit number, no label

Exam item: Which concentration at 24 h value belongs to Cc1ccc(C(F)(F)F)cc1NS(=O)(=O)c1cccc(C(=O)O)c1 [Compound A2] ?
Marked response: 2

----------
test: Pharmacokinetic study of compound A2 in rats; format: in vivo; settings: rat, in vivo, 10 mg/kg, PO
readout.kind: Tmax (h)
Use h as the unit, but write only the number.

Exam item: I have this compound here, Cc1ccc(C(F)(F)F)cc1NS(=O)(=O)c1cccc(C(=O)O)c1 [Compound A2] , and I need its recorded Tmax.
Marked response: 4

----------
assay: Compound A2 concentration in the CSF of rats; assay type: in vivo; details: rat, CSF, po, 10 mg/kg, PO, 2.0 h, mean, read-out: CSF Concentration, Mean
readout.kind: concentration at 2 h

Exam item: Need concentration at 2 h, item Cc1ccc(C(F)(F)F)cc1NS(=O)(=O)c1cccc(C(=O)O)c1
Marked response: 3.2 ng/mL

----------
# key: entry, value: Mean Height
experiment: Metabolic stability in fresh human plasma (LC/MS/MS peak heights); type: in vitro ADME; conditions: human, 2 h, 1 μM

- compound: "COc1cc(NS(=O)(=O)c2cccc(C(=O)O)c2)cc(OC)c1"
  Mean Height: "3,440"

Exam item: GET /values?readout=Mean Height&item= CC(C)[C@H](N)C(=O)OCCOCn1cnc2c(=O)[nH]c(N)nc21 [Valacyclovir, reference compound]
Marked response: 19,800

Exam item: Okay, and Cc1ccc(C(F)(F)F)cc1NS(=O)(=O)c1cccc(C(=O)O)c1 ?
Marked response: 13,000

Exam item: Next compound up: CS(=O)(=O)Nc1cccc(NS(=O)(=O)c2ccc(C(=O)O)cc2)c1
Marked response: 3,510

----------
assay: Metabolic stability in fresh human plasma (LC/MS/MS peak heights); type: in vitro ADME; settings: human, plasma, 4 h, 1 μM
readout.kind: % Remaining (%)
Write down the numeric answer in % and omit the unit.

- compound: "CC(C)[C@H](N)C(=O)OCCOCn1cnc2c(=O)[nH]c(N)nc21 [Valacyclovir, reference compound]"
  unit.label: "%"
  % Remaining: 82.7
- compound: "COc1cc(NS(=O)(=O)c2cccc(C(=O)O)c2)cc(OC)c1"
  unit.label: "%"
  % Remaining: 91
- compound: "Cc1ccc(C(F)(F)F)cc1NS(=O)(=O)c1cccc(C(=O)O)c1"
  unit.label: "%"
  % Remaining: 104

Exam item: Could you tell me which % Remaining is on file for CS(=O)(=O)Nc1cccc(NS(=O)(=O)c2ccc(C(=O)O)cc2)c1 ?
Marked response: 86

----------
assay: Compound A2 concentration in the CSF of rats; type: in vivo; settings: rat, CSF, iv, 1 mg/kg, IV, 4.0 h, individual animals, read-out: CSF Concentration
readout.kind: concentration at 4 h (ng/mL)
// units = ng/mL; emit number, no label

Exam item: Suppose we examine the compound Cc1ccc(C(F)(F)F)cc1NS(=O)(=O)c1cccc(C(=O)O)c1 ; what concentration at 4 h value has been reported?
Marked response: 15

----------
assay: Pharmacokinetic study of compound A2 in rats; format: in vivo; details: rat, in vivo, 1 mg/kg, IV
readout.kind: AUC(0-t) (ng·h/mL)
Kindly provide the numeric value in ng·h/mL only, without the unit symbol.

Exam item: # get_value(readout='AUC(0-t)', item= Cc1ccc(C(F)(F)F)cc1NS(=O)(=O)c1cccc(C(=O)O)c1 )
Marked response: 13400

----------
test: Compound A2 concentration in the CSF of rats; assay type: in vivo; details: rat, CSF, iv, 1 mg/kg, IV, 8.0 h, individual animals, read-out: CSF Concentration
readout.kind: concentration at 8 h (ng/mL)
# number only, unit ng/mL dropped from output

Exam item: Entry under review: Cc1ccc(C(F)(F)F)cc1NS(=O)(=O)c1cccc(C(=O)O)c1 [Compound A2] . Reported concentration at 8 h?
Marked response: 1.4

----------
assay: Pharmacokinetic study of compound A2 in rats; format: in vivo; conditions: rat, in vivo, 1 mg/kg, IV
readout.kind: Cmax (ng/mL)
Only the number, expressed in ng/mL, is required.

Exam item: Fill in the blank: the reported Cmax of Cc1ccc(C(F)(F)F)cc1NS(=O)(=O)c1cccc(C(=O)O)c1 [Compound A2] is ____.
Marked response: 4310

----------
experiment: Metabolic stability in fresh human plasma (LC/MS/MS peak heights); format: in vitro ADME; conditions: human, plasma, 0.5 h, 1 μM
readout.kind: % Remaining (%)
Only the number, expressed in %, is required.

- molecule: "CC(C)[C@H](N)C(=O)OCCOCn1cnc2c(=O)[nH]c(N)nc21 [Valacyclovir, reference compound]"
  % Remaining / %: 96.7
- molecule: "COc1cc(NS(=O)(=O)c2cccc(C(=O)O)c2)cc(OC)c1"
  % Remaining / %: 97
- molecule: "Cc1ccc(C(F)(F)F)cc1NS(=O)(=O)c1cccc(C(=O)O)c1"
  % Remaining / %: 106

Exam item: GET /values?readout=% Remaining&item= CS(=O)(=O)Nc1cccc(NS(=O)(=O)c2ccc(C(=O)O)cc2)c1
Marked response: 88

----------
Experiment: Pharmacokinetic study of compound A2 in rats
Format: in vivo
Conditions: rat, in vivo, 10 mg/kg, PO
Experimental: A pharmacokinetic study on compound A2 was carried out in rats.
readout.kind: AUC(0-t)
The number alone won't do; follow it with the unit.

Exam item: Requested field: AUC(0-t). Item: Cc1ccc(C(F)(F)F)cc1NS(=O)(=O)c1cccc(C(=O)O)c1 [Compound A2]
Marked response: 56200 ng·h/mL

----------
Quick reference: % Remaining of the listed items.
assay: Metabolic stability in fresh human plasma (LC/MS/MS peak heights); type: in vitro ADME; settings: human, plasma, 1 h, 1 μM
Mention the unit after the number when you answer.

- compound: "CC(C)[C@H](N)C(=O)OCCOCn1cnc2c(=O)[nH]c(N)nc21 [Valacyclovir, reference compound]"
  % Remaining: "95.8%"
- compound: "Cc1ccc(C(F)(F)F)cc1NS(=O)(=O)c1cccc(C(=O)O)c1"
  % Remaining: "103%"
- compound: "CS(=O)(=O)Nc1cccc(NS(=O)(=O)c2ccc(C(=O)O)cc2)c1"
  % Remaining: "87%"

Attention now shifts to the item below.
Exam item: Look at this compound and give its reported % Remaining. COc1cc(NS(=O)(=O)c2cccc(C(=O)O)c2)cc(OC)c1
Marked response: 87%

----------
experiment: Metabolic stability in fresh human plasma (LC/MS/MS peak heights); type: in vitro ADME; details: human, plasma, 2 h, 1 μM
// reported % Remaining for each item listed

Exam item: # query: % Remaining of entry COc1cc(NS(=O)(=O)c2cccc(C(=O)O)c2)cc(OC)c1
Marked response: 82%

Exam item: Do the same for CS(=O)(=O)Nc1cccc(NS(=O)(=O)c2ccc(C(=O)O)cc2)c1 please
Marked response: 83%

Exam item: Next compound up: Cc1ccc(C(F)(F)F)cc1NS(=O)(=O)c1cccc(C(=O)O)c1
Marked response: 103%

Exam item: // same read-out, input: CC(C)[C@H](N)C(=O)OCCOCn1cnc2c(=O)[nH]c(N)nc21 [Valacyclovir, reference compound]
Marked response: 92.5%

----------
assay: Pharmacokinetic study of compound A2 in rats; type: in vivo; conditions: rat, in vivo, 1 mg/kg, IV
readout.kind: AUC(0-inf) (ng·h/mL)
Express it in ng·h/mL; write the number only.

Exam item: Given Cc1ccc(C(F)(F)F)cc1NS(=O)(=O)c1cccc(C(=O)O)c1 [Compound A2] , state its recorded AUC(0-inf).
Marked response: 13800

----------
assay: Compound A2 concentration in the CSF of rats; type: in vivo; settings: rat, CSF, po, 10 mg/kg, 1.0 h, mean
readout.kind: concentration at 1 h (ng/mL)
The answer is to be given in ng/mL; state only the numeric part.

Exam item: Please report the recorded concentration at 1 h for Cc1ccc(C(F)(F)F)cc1NS(=O)(=O)c1cccc(C(=O)O)c1 .
Marked response: 15

----------
test: Compound A2 concentration in the CSF of rats; type: in vivo; conditions: rat, CSF, po, 10 mg/kg, PO, 0.5 h, mean, read-out: CSF Concentration, Mean
readout.kind: concentration at 0.5 h (ng/mL)
Number only, in ng/mL; omit the unit.

Exam item: If you can, please state the reported concentration at 0.5 h value of Cc1ccc(C(F)(F)F)cc1NS(=O)(=O)c1cccc(C(=O)O)c1 .
Marked response: 3.5
